This collection of values is drawn from ChEMBL document CHEMBL1156213.

# target_desc: Receptor tyrosine-protein kinase erbB-2 (Homo sapiens, UniProt P04626)
# Sequence (P04626 whole entry): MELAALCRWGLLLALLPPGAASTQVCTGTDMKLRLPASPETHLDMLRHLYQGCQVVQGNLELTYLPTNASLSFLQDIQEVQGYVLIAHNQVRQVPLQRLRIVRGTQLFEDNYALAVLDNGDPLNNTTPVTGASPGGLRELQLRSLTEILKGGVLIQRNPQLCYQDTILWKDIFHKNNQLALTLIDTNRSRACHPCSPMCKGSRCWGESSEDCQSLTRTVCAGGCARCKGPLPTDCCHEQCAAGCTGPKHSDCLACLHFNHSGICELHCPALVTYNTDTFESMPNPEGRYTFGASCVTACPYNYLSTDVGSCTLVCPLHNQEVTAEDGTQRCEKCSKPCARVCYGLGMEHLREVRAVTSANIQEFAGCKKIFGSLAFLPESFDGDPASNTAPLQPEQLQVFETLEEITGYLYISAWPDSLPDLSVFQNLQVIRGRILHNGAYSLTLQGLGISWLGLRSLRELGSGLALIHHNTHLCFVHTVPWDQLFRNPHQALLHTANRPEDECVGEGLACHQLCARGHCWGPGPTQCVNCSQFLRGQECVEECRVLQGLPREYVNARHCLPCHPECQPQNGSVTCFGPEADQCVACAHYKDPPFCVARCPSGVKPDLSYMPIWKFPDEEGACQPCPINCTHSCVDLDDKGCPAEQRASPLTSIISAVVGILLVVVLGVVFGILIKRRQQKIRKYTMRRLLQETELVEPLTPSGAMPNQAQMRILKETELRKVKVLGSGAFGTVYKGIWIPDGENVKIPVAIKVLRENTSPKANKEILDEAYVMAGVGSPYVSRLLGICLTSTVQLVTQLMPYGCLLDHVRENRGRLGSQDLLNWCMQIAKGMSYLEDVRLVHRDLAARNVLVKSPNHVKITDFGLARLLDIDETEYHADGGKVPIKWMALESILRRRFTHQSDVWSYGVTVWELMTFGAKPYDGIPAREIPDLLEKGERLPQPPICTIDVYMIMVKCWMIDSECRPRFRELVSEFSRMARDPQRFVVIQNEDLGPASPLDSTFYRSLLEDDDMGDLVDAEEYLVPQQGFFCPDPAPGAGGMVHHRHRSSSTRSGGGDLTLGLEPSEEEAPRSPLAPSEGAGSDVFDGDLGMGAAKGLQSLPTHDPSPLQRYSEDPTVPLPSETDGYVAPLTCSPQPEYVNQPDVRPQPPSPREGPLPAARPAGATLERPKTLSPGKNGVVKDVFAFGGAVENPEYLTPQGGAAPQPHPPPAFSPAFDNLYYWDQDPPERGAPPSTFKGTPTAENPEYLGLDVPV
# experimental_protocol: Inhibition of ErbB2 by time resolved fluorescence assay
pIC50: −log10 of the molar value.
Binary call on pIC50: met from 7 upward, not met beneath that.

stdin: Please tell me: is the compound O=C(Nc1cccc(-c2nc3sccn3c2-c2ccnc(Nc3ccc(N4CCOCC4)cc3)n2)c1)Oc1ccccc1 at or over 7 in terms of pIC50?
stdout: not met

stdin: Please tell me: is the compound O=C(CC1CCCCC1)Nc1cccc(-c2nc3sccn3c2-c2ccnc(Nc3ccc(N4CCOCC4)cc3)n2)c1 at or over 7 in terms of pIC50?
stdout: not met

stdin: Please tell me: is the compound O=[N+]([O-])c1cccc(-c2nc3sccn3c2-c2ccnc(Nc3ccccc3)n2)c1 at or over 7 in terms of pIC50?
stdout: not met

stdin: Please tell me: is the compound CCN1CCN(c2ccc(Nc3nccc(-c4c(-c5cccc(NC(=O)Cc6ccccc6)c5)nc5sccn45)n3)cc2)CC1 at or over 7 in terms of pIC50?
stdout: not met

stdin: Please tell me: is the compound O=C(Nc1cccc(-c2nc3sccn3c2-c2ccnc(Nc3ccc(N4CCOCC4)cc3)n2)c1)c1ccccc1 at or over 7 in terms of pIC50?
stdout: met

stdin: Please tell me: is the compound Nc1nc2ccc(-c3c(-c4cccc(NC(=O)c5ccccc5Cl)c4)nc4sccn34)cc2[nH]1 at or over 7 in terms of pIC50?
stdout: not met

stdin: Please tell me: is the compound O=C(CC1CCCC1)Nc1cccc(-c2nc3sccn3c2-c2ccnc(Nc3ccc(N4CCOCC4)cc3)n2)c1 at or over 7 in terms of pIC50?
stdout: not met

stdin: Please tell me: is the compound O=C(Cc1ccccc1)Nc1cccc(-c2nc3sccn3c2-c2ccnc(Nc3ccc4c(c3)CCNC4)n2)c1 at or over 7 in terms of pIC50?
stdout: met

stdin: Please tell me: is the compound CN(C)CCc1ccc(Nc2nccc(-c3c(-c4cccc(NC(=O)c5c(F)cccc5F)c4)nc4sccn34)n2)cc1 at or over 7 in terms of pIC50?
stdout: met

stdin: Please tell me: is the compound O=C(Nc1cccc(-c2nc3sccn3c2-c2ccncc2)c1)c1ccccc1Cl at or over 7 in terms of pIC50?
stdout: not met

stdin: Please tell me: is the compound O=C(Nc1cccc(-c2nc3sccn3c2-c2ccnc(Nc3ccccc3)n2)c1)c1ccccc1Cl at or over 7 in terms of pIC50?
stdout: met

stdin: Please tell me: is the compound O=C(Nc1ccccc1)Nc1cccc(-c2nc3sccn3c2-c2ccnc(Nc3ccc(N4CCOCC4)cc3)n2)c1 at or over 7 in terms of pIC50?
stdout: not met

stdin: Please tell me: is the compound O=C(Nc1cccc(-c2nc3sccn3c2-c2ccnc(Nc3ccc4c(c3)CCNC4)n2)c1)c1c(F)cccc1F at or over 7 in terms of pIC50?
stdout: met

stdin: Please tell me: is the compound O=C(Nc1cccc(-c2nc3sccn3c2-c2ccnc(Nc3ccccc3)n2)c1)c1ccccc1 at or over 7 in terms of pIC50?
stdout: met

stdin: Please tell me: is the compound CCN1CCN(c2ccc(Nc3nccc(-c4c(-c5cccc(NC(=O)c6c(F)cccc6F)c5)nc5sccn45)n3)cc2)CC1 at or over 7 in terms of pIC50?
stdout: met

----------
# target_desc: Epidermal growth factor receptor (Homo sapiens, UniProt P00533, L858R)
# Sequence (P00533 25-1210 L858R limits assumed): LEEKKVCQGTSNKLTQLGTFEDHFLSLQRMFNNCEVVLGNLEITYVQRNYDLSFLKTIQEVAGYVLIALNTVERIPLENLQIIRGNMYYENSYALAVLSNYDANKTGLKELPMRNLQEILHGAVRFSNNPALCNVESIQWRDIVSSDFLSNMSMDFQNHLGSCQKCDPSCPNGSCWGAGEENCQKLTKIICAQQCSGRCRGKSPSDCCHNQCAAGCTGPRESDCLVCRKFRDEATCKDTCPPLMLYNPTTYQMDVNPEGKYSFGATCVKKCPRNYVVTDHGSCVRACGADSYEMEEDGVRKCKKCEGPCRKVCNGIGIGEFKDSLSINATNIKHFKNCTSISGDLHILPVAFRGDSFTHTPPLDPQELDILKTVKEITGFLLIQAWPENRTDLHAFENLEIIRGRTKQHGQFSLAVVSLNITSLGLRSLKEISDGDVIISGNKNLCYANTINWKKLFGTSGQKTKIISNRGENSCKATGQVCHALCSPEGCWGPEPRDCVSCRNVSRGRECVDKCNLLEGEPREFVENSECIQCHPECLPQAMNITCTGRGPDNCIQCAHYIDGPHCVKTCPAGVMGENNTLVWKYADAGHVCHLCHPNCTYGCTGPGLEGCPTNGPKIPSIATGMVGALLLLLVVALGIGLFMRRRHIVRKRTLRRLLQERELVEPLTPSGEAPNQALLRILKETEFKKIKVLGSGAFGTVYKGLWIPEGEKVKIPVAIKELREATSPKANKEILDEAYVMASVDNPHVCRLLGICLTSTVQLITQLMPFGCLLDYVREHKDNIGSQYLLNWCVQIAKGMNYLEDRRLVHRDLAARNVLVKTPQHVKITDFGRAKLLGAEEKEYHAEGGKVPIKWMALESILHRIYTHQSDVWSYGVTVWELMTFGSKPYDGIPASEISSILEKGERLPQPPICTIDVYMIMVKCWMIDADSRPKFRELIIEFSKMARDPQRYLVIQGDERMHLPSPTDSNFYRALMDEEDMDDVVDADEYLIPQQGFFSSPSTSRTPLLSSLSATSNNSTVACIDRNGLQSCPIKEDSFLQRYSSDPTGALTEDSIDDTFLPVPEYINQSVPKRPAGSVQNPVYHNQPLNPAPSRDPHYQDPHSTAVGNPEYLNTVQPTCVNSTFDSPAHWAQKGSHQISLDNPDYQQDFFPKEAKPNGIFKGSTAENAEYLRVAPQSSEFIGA
IC50 under 80 nM gets true, anything at or over 80 nM gets false.

stdin: # TODO verify IC50 < 80 nM strictly for this molecule: CN(C)CCc1ccc(Nc2nccc(-c3c(-c4cccc(NC(=O)c5c(F)cccc5F)c4)nc4sccn34)n2)cc1
stdout: true

stdin: # TODO verify IC50 < 80 nM strictly for this molecule: CN(C)CCc1cccc(Nc2nccc(-c3c(-c4cccc(NC(=O)Cc5ccccc5)c4)nc4sccn34)n2)c1
stdout: true

stdin: # TODO verify IC50 < 80 nM strictly for this molecule: O=C(Nc1cccc(-c2nc3sccn3c2-c2ccncc2)c1)c1ccccc1Cl
stdout: false

stdin: # TODO verify IC50 < 80 nM strictly for this molecule: O=C(Nc1cccc(-c2nc3sccn3c2-c2ccnc(Nc3ccccc3)n2)c1)c1ccccc1Cl
stdout: false

stdin: # TODO verify IC50 < 80 nM strictly for this molecule: O=C(Nc1cccc(-c2nc3sccn3c2-c2ccnc(Nc3ccc(N4CCOCC4)cc3)n2)c1)Oc1ccccc1
stdout: false
